# rescue above control values compiled below
method notes: restoration of touch response, mutant HTT neurons – whole organism, C. elegans mechanosensory neurons, N-terminal huntingtin (AID 1599)
measurement setup: C. elegans polyQ-huntingtin mechanosensory neurons, stronger effect = higher value
Measured potencies and affinities stand elsewhere.
// response body must contain only the number

• COc1cc(NS(=O)(=O)c2ccc(N)cc2)ncn1 = 33.1
• Nc1ccc(S(=O)(=O)Nc2ccccn2)cc1 = 5.7
• NC(N)=NS(=O)(=O)c1ccc(N)cc1 = -3.67

Need rescue above control of Cn1c([N+](=O)[O-])cnc1COC(N)=O , thanks. 8.28

# repeat for CCn1cc(C(=O)O)c(=O)c2cnc(N3CCNCC3)nc21 5.83

# repeat for CCC(=O)c1c(O)cc(O)cc1O -3.67

# repeat for Cc1c(NC(=O)c2cccnc2)c(=O)n(-c2ccccc2)n1C -0.65

# repeat for CCN(CC)CCOC(=O)C(c1ccccc1)C1CCCCC1 (stereo not drawn) 0.94

###

method notes: compounds altering viability of human ES cells (AID 493140);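 also: cells exposed to compounds for four days before counting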
measurement setup: human embryonic stem cell survival screen; stronger effect = higher value
Activity calls are given as the source filed them. How the calls were made is not given here.
# survival values compiled below

- CC(C)NCC(O)COc1ccc(CCOCC2CC2)cc1 (stereo unspecified): 8.33 (inactive)
- Cc1cccc(C)c1OCC(C)N (stereo unspecified): 21.7 (inactive)
- Cc1c(N(C)CS(=O)(=O)O)c(=O)n(-c2ccccc2)n1C: 3.25 (inactive)

Need survival of CC[C@]12CCCN3CCc4c(n(c5ccccc45)[C@@](O)(C(=O)OC)C1)[C@@H]32 , thanks. 10.1 (inactive)

# repeat for CC1(C)NC(=O)N(c2ccc([N+](=O)[O-])c(C(F)(F)F)c2)C1=O 0.917 (inactive)

# repeat for O=C(O)[C@@H]1[C@H]2C[C@H]3c4[nH]c5ccccc5c4CCN3C[C@@H]2CC[C@@H]1O 2.42 (inactive)

###

method notes: EMT-state selective cytotoxicity in co-culture – imaging, PC-3E GFP, TEM4-18 mCherry, primary screen (AID 1345086);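 also: cells exposed to compound for 72 h before imaging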
measurement setup: PC-3E GFP / TEM4-18 mCherry co-culture, imaging cell counts; measured here: mesenchymal TEM4-18 mCherry cell survival; at 1 µM
experimental endpoint: normalised cell number
// response body must contain only the number

Example results:
* CC(C)NCC(O)c1ccc2ccccc2c1 (configuration not stated) | 1.07
* Cc1cccc(N(C)C(=S)Oc2ccc3ccccc3c2)c1 | 1.46
* CCOC(=O)C1=C(C)NC(C)=C(C(=O)OC)C1c1cccc(Cl)c1Cl (configuration not stated) | 1.2
* NC(=O)NC(=O)Cc1ccccc1 | 1.21
* COc1cccc(OC)c1C(=O)N[C@@H]1C(=O)N2[C@@H]1SC(C)(C)[C@@H]2C(=O)O | 1.15

Need normalised cell number of C[N+]12CCC(CC1)C(OC(=O)C(O)(c1ccccc1)c1ccccc1)C2 (configuration not stated) , thanks. 1.33

# repeat for CN1CCCCC1CCN1c2ccccc2Sc2ccc(S(C)=O)cc21 (configuration not stated) 1.16

# repeat for C=CCc1ccc(O)c(OC)c1 1.13

# repeat for O=C(O)c1ccccc1Nc1cccc(C(F)(F)F)c1 1

# repeat for O=C1CCc2cc(OCCCCc3nnnn3C3CCCCC3)ccc2N1 0.94

# repeat for CCn1cc(C(=O)O)c(=O)c2cnc(N3CCNCC3)nc21 0.77

# repeat for CCC(Cc1c(I)cc(I)c(N)c1I)C(=O)O (configuration not stated) 1.33

###

method notes: drug combination growth inhibition, ovarian cancer – cell-based, oncology-focused library, rucaparib conditional, profiling panel (AID 1508598)
measurement setup: patient-derived ovarian cancer cells, CellTiter-Glo viability, 144 h; at 0.000305 µM; OCI-P5x cells; without rucaparib; stronger effect = lower value
Could you please mark Met for values of viability below 90% and Not met for values at or above it?

Previously resolved entries follow.
* O=NN(CCCl)C(=O)NC1CCCCC1 | Not met
* CCC(C)n1ncn(-c2ccc(N3CCN(c4ccc(OC[C@H]5CO[C@](Cn6cncn6)(c6ccc(Cl)cc6Cl)O5)cc4)CC3)cc2)c1=O (stereo partly specified) | Met
* NC(=O)NO | Not met
* Cc1nc(-c2ccc(OCC(C)C)c(C#N)c2)sc1C(=O)O | Not met

Would you kindly verify if viability of CC(c1cc2ccccc2s1)N(O)C(N)=O (stereo unspecified) is strictly less than 90%? Met

# repeat for COc1ccccc1OCC(O)CN1CCN(CC(=O)Nc2c(C)cccc2C)CC1 (stereo unspecified) Not met

# repeat for COC(=O)Nc1nc2ccc(C(=O)c3cccs3)cc2[nH]1 Met

# repeat for CCc1c2c(nc3ccc(OC(=O)N4CCC(N5CCCCC5)CC4)cc13)-c1cc3c(c(=O)n1C2)COC(=O)[C@]3(O)CC Not met

###

# log fold change Tl+ flux values compiled below
Test system: F380Y/beta4
method notes: BK channel mutant inhibitors and activators – cell-based, U2OS BacMam, thallium flux, beta subunits, selectivity assay, profiling panel (AID 1259406);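 also: initial slope of Thallos dye fluorescence rise after thallium is added; log ratio against the mean of 0.3% DMSO vehicle wells on the same plate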
measurement setup: U2OS BacMam BK variants, at 30 µM
// response body must contain only the number

- C[C@H]1COc2c(C3(N)CC3)c(F)cc3c(=O)c(C(=O)O)cn1c23: -0.037
- O=C1CC2(CCCC2)CC(=O)N1CCCCN1CCN(c2ncccn2)CC1: 0.0587

Need log fold change Tl+ flux of CC(C)(C)NC(=O)[C@H]1CC[C@H]2[C@@H]3CC[C@H]4NC(=O)C=C[C@]4(C)[C@H]3CC[C@]12C , thanks. 0.00105

# repeat for Nc1nc(F)nc2c1ncn2[C@@H]1O[C@H](CO)[C@@H](O)[C@@H]1O -0.0895

# repeat for Cc1ccsc1C(=CCCN1CCC[C@@H](C(=O)O)C1)c1sccc1C 0.0453

###

method notes: MELAS cybrid and Rieske KO viability enhancers – cell-based, MELAS cybrids, Rieske KO mouse fibroblasts, CellTiter-Glo, primary screen (AID 1508586);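 also: z relative to plate mean and SD of compound and empty wells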
measurement setup: MELAS cybrid survival, low glucose, CellTiter-Glo 48 h; stronger effect = higher value
Lab note: anything with z-score at or over 0.6 counts as Y; the rest go in N.

Would you say CCOc1ccc(Cc2nccc3cc(OCC)c(OCC)cc23)cc1OCC shows z-score at minimum 0.6? Y

###

method notes: drug combination growth inhibition, ovarian cancer – cell-based, oncology-focused library, rucaparib conditional, profiling panel (AID 1508598)
measurement setup: patient-derived ovarian cancer cells, CellTiter-Glo viability, 144 h; at 0.0781 µM; OCI-C5x cells; with rucaparib 10 µM; 100% = cells with rucaparib alone
Active and inactive are the calls of the source.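 Rule for the calls: active = normalized viability below 100% at a tested concentration; inactive = the rest.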
Mark one answer only. Choices: label 1 = active, label 0 = inactive

Previously resolved entries follow.
* CC(C)(C#N)c1cc(Cn2cncn2)cc(C(C)(C)C#N)c1 | label 0
* COc1cc2c(N3CCN(C(=O)Nc4ccc(OC(C)C)cc4)CC3)ncnc2cc1OCCCN1CCCCC1 | label 0
* Cc1nc(-c2ccc(OCC(C)C)c(C#N)c2)sc1C(=O)O | label 0
* CCc1c2c(nc3ccc(OC(=O)N4CCC(N5CCCCC5)CC4)cc13)-c1cc3c(c(=O)n1C2)COC(=O)[C@]3(O)CC | label 0
* CC(c1cc2ccccc2s1)N(O)C(N)=O (configuration not stated) | label 0

Test call, this compound: COC(=O)Nc1nc2ccc(C(=O)c3cccs3)cc2[nH]1 label 1

# repeat for COc1ccccc1OCC(O)CN1CCN(CC(=O)Nc2c(C)cccc2C)CC1 (configuration not stated) label 0

# repeat for CCC(C)n1ncn(-c2ccc(N3CCN(c4ccc(OC[C@H]5CO[C@](Cn6cncn6)(c6ccc(Cl)cc6Cl)O5)cc4)CC3)cc2)c1=O (some centres not stated) label 0

###

method notes: blockers of cytochrome c efflux from mitochondria – biochemical, purified mitochondria (AID 1603);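 also: mouse liver mitochondria challenged with calcium chloride; signal normalized to the plate average as 100%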
measurement setup: stronger effect = lower value
# cytochrome c release ratio values compiled below
// response body must contain only the number

Need cytochrome c release ratio of CC(=O)OCC1=C(C(=O)O)N2C(=O)[C@@H](NC(=O)CSc3ccncc3)[C@H]2SC1 , thanks. 1.02

# repeat for O=C(O)c1cccnc1Nc1cccc(C(F)(F)F)c1 0.87

# repeat for CN(C)CCC(c1ccccc1)c1ccccn1 (stereo not given) 1

###

# fluorescence slope change values compiled below
tested on: ATP-dependent translocase ABCB1 (Homo sapiens) (UniProt P08183)
Sequence (P08183 whole entry, looked up): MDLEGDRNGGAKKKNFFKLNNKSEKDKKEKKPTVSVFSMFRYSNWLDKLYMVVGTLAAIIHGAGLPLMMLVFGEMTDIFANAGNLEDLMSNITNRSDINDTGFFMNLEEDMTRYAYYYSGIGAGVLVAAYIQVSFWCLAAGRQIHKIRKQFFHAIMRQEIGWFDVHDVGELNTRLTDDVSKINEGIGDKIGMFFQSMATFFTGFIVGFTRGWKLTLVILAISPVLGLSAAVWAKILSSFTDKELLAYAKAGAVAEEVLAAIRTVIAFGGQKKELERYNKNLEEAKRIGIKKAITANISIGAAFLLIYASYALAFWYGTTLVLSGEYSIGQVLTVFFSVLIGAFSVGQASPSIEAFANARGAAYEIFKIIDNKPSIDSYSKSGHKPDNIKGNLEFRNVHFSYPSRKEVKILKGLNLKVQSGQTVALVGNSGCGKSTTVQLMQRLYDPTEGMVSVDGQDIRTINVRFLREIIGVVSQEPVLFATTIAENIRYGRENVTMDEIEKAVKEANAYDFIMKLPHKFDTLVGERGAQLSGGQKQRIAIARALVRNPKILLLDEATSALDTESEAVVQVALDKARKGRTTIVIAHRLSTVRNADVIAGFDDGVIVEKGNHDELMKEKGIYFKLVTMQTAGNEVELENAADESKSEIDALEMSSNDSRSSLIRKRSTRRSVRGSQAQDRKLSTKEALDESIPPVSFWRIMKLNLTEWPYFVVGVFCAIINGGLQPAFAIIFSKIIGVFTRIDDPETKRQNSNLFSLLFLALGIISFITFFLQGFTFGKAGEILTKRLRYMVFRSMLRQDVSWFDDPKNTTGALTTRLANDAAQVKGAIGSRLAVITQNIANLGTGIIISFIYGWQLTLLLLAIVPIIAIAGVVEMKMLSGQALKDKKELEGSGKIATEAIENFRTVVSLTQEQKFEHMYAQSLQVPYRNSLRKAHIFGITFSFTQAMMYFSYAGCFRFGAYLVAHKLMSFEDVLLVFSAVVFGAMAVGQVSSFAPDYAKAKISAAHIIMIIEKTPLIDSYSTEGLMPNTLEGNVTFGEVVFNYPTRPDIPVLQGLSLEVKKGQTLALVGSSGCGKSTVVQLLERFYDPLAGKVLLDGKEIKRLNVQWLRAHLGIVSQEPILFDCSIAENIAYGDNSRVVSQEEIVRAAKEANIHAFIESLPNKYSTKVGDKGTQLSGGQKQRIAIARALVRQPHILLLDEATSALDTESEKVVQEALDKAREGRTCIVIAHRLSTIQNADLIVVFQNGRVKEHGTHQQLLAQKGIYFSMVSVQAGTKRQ
method notes: P-glycoprotein substrate transport blockade – cell-based (AID 377)
measurement setup: MDR1-expressing cells, fluorescent substrate accumulation slope; stronger effect = higher value; concentration not given here
Inconclusive results are not listed.
Numbers only here, please. The scale is %.

• CC(NCCC(c1ccccc1)c1ccccc1)c1ccccc1 (stereo not given) = 200
• Oc1cc(O)c2c(c1)O[C@H](c1ccc(O)c(O)c1)[C@H](O)C2 = -0.6
• CC(=O)[C@@]1(O)CC[C@H]2[C@@H]3C[C@H](C)C4=CC(=O)C=C[C@]4(C)[C@@]3(F)[C@@H](O)C[C@@]21C = 10.7
• Nc1ccc(S(=O)(=O)Nc2ccc(Cl)nn2)cc1 = -13.4

Now consider a different compound.
Need fluorescence slope change of NC(N)=N/N=C/c1c(Cl)cccc1Cl , thanks. 70.4
